# SUBJECT OF TEST: human CD33 on primary human monocyte-derived dendritic cells (human, UniProt P20138 18-364)
# Sequence (P20138 18-364): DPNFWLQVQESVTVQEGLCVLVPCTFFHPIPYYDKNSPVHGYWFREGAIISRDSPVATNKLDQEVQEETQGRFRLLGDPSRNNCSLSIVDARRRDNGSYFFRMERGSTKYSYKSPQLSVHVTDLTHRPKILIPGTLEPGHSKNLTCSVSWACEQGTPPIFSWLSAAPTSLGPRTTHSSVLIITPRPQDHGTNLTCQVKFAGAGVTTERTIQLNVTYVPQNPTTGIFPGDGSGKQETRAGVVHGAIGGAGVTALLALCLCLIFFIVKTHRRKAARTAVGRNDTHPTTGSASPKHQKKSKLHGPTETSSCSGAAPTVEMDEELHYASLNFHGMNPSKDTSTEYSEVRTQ
# ASSAY OVERVIEW: cell-based or functional assay
QUANTITY KIND: Receptor downregulation (EC50) (pM)

binder="AB-64.7 (antibody, V domains shown) VH: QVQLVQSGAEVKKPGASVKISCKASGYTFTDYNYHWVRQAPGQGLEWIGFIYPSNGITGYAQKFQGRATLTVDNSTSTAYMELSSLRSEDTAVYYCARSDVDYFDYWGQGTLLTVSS VL: DIVLTQSPDSLAVSLGERATINCRASQSVGTSTYSYMHWYQQKPGQPPKLLIKYASNLNSGVPDRFSGSGSGTDFTLTISSLQAEDVAVYYCQHSEEIPLTFGQGTKLEIK" value_unit=pM value_measured=30.6
binder="AB-64.6 (antibody, V domains shown) VH: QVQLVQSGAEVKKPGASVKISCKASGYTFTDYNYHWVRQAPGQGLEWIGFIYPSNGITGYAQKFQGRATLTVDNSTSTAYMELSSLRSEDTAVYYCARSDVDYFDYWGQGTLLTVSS VL: DIVLTQSPDSLAVSLGERATINCRASQDVSTSTYSYMHWYQQKPGQPPKLLIKYASFLESGVPDRFSGSGSGTDFTLTISSLQAEDVAVYYCQHSWEIPLTFGQGTKLEIK" value_unit=pM value_measured=34
binder="AB-64.8 (antibody, V domains shown) VH: QVQLVQSGAEVKKPGASVKISCKASGYTFTDYNYHWVRQAPGQGLEWIGFIYPSNGITGYAQKFQHRATLTVDNSTSTAYMELSSLRSEDTAVYYCARSDVDYFDYWGQGTLLTVSS VL: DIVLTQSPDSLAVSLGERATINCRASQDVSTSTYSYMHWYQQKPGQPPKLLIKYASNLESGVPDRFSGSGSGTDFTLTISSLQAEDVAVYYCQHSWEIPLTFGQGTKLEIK" value_unit=pM value_measured=27.2
binder="AB-H64 (antibody, V domains shown, Humanized variant of murine 2F5.1; also called parental humanized antibody) VH: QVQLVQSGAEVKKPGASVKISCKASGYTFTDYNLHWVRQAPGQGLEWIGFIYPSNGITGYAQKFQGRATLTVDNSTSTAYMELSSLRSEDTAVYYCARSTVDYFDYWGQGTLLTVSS VL: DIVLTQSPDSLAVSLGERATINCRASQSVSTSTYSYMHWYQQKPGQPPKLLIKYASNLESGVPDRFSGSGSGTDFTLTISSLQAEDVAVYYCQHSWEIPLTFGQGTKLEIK" value_unit=pM value_measured=36.6
